assayed-target: CaLsb1
measurement-protocol: SPOT peptide array binding signal intensity (averaged, normalized) (arbitrary units (background-subtracted, floor 0; scale differs between SH3 domains)); higher = stronger binding of the SH3 domain to the peptide
Reported SPOT peptide array binding signal intensity values follow for various binders
Lab note: jot the number down without any unit.

RAPPPVPKKPSSRIA: 0.5

Prompt line: SPOT peptide array binding signal intensity for FFRRSELYLPNSSKA ?
Response line: 0.5

Prompt line: SPOT peptide array binding signal intensity for LSKRLPLRFPEHTSS ?
Response line: 1
